targetOrSystem: human NPY Y5 receptor (Homo sapiens)
Construct: expressed in transfected cells
Sequence (Q15761 1-445): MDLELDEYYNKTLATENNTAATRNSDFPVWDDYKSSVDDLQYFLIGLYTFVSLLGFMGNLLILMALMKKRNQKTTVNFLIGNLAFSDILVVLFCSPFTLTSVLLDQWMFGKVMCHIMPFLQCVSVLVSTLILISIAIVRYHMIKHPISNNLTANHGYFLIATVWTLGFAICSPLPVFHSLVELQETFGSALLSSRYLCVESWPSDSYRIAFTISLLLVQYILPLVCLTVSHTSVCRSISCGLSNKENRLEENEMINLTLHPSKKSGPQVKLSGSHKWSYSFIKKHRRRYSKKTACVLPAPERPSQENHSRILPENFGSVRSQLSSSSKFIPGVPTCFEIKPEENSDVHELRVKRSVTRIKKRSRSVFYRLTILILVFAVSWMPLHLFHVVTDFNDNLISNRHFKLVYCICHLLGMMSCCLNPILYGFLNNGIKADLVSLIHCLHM
measurementNotes: cAMP production inhibitory activity in CHO cells
Format: cell-based
setupConditions: against 50 nM NPY inhibition of forskolin stimulated cAMP, CHO cells expressing human NPY Y5 receptor
quantityKind: log10 IC50 (log10 of the value in nM)

{"columns": ["compound", "log10 IC50"],
 "data": [
  ["CC(C)(C)S(=O)(=O)NC1CCC(C(=O)Nc2cccc(Cl)c2)CC1 (centres unmarked)", 0.95],
  ["CC(C)(C)S(=O)(=O)NC1CCC(C(=O)Nc2ccc(OC3CCCC3)cc2)CC1 (centres unmarked)", 0.67],
  ["CC(C)(C)S(=O)(=O)NC1CCC(C(=O)Nc2ccc(Nc3ccccc3)cc2)CC1 (centres unmarked)", 1.46],
  ["CCC(C)c1ccc(NC(=O)C2CCC(NS(=O)(=O)C(C)(C)C)CC2)cc1 (centres unmarked)", 0.74],
  ["CCOCCN(CCOCC)c1ccc(NC(=O)C2CCC(NS(=O)(=O)C(C)(C)C)CC2)cc1 (centres unmarked)", 1.62],
  ["CC(C)(C)S(=O)(=O)Nc1ccc(C(=O)Nc2ccc3c(c2)OCCO3)cc1", 2.20],
  ["CC(C)NS(=O)(=O)c1ccc(NC(=O)C2CCC(NS(=O)(=O)C(C)(C)C)CC2)cc1 (centres unmarked)", 1.04],
  ["CC(=O)c1cc2cc(NC(=O)C3CCC(NS(=O)(=O)C(C)(C)C)CC3)ccc2oc1=O (centres unmarked)", 1.00]
]}
